Tested on: male ICR-mice
Assay: Potentiation of sodium pentobarbital sleeping time test
Assay type: in vivo
Settings: oral, 5 mg/kg, 38 mg/kg sodium pentobarbital 60 min later
Note that class boundaries on Sleep prolonging rate (%) are lowest: < 50%; middle: ≥ 50% and < 80%; highest: ≥ 80%

Molecule	Qualitative label
CC[C@@H](Nc1ncnc2c1ncn2[C@@H]1O[C@H](COC(C)=O)C(O)C1O)c1ccccc1 (stereo partly shown)	highest
CCCC(Nc1ncnc2c1ncn2[C@@H]1O[C@H](CO)[C@@H](O)[C@H]1O)c1ccccc1 (mixture of isomers) [Example 87, N^6-[(±)-1-(phenyl)-butyl]-adenosine]	middle
OC[C@@H](Nc1ncnc2c1ncn2[C@@H]1O[C@H](CO)[C@@H](O)[C@H]1O)c1ccccc1	middle
COc1cccc([C@@H](C)Nc2ncnc3c2ncn3[C@@H]2O[C@H](CO)[C@@H](O)[C@H]2O)c1	highest
COc1cc(C(C)Nc2ncnc3c2ncn3[C@H]2C[C@H](O)[C@@H](CO)O2)cc(OC)c1OC (mixture of isomers)	lowest

Bin this entry: CCOC(=O)[C@@H](Cc1c[nH]c2ccccc12)Nc1ncnc2c1ncn2[C@@H]1O[C@H](CO)C(O)C1O (stereo partly shown)
lowest

Bin this entry: OC[C@H]1O[C@@H](n2cnc3c(NCCc4ccc(O)c(O)c4)ncnc32)C(O)C1O (stereo partly shown)
middle

Bin this entry: OC[C@H]1O[C@@H](n2cnc3c(N[C@H](CO)[C@H](O)c4ccccc4)ncnc32)C(O)C1O (stereo partly shown)
lowest

Bin this entry: COc1cc(C(C)Nc2ncnc3c2ncn3[C@@H]2O[C@H](CO)[C@@H](O)[C@H]2O)ccc1O (mixture of isomers)
highest

Bin this entry: CCOC(=O)[C@@H](Cc1ccc(O)cc1)Nc1ncnc2c1ncn2[C@@H]1O[C@H](CO)C(O)C1O (stereo partly shown)
lowest

###

System: male ICR-mice
Experiment: Potentiation of sodium pentobarbital sleeping time test
Format: in vivo
Conditions: oral, 5 mg/kg, 38 mg/kg sodium pentobarbital 60 min later
Outcome measure: Sleep prolonging rate (%)
Write down the numeric answer in % and omit the unit.

Some compounds with known Sleep prolonging rate (%) results, for comparison:
                                   compound    measured_on            outcome_measure  unit_abbreviation  observed_result
0  Cc1ccc(CNc2ncnc3c2ncn3[C@H]2C[C@H](O)[C@@H](CO)O2)cc1  male ICR-mice  Sleep prolonging rate (%)                  %               34
1  CCN(CCO)c1ncnc2c1ncn2[C@@H]1O[C@H](CO)[C@@H](O)[C@H]1O [Example 139, N^6-ethyl-N^6-(2-hydroxyethyl)-adenosine]  male ICR-mice  Sleep prolonging rate (%)                  %                5

API: the following record is the query input.
Give the reported Sleep prolonging rate (%) for CCOC(=O)[C@H](Cc1c[nH]c2ccccc12)Nc1ncnc2c1ncn2[C@@H]1O[C@H](CO)C(O)C1O (stereo partly drawn) (system: male ICR-mice).
7

###

System: male ICR-mice
Experiment: Potentiation of sodium pentobarbital sleeping time test
Assay type: in vivo
Details: oral, 5 mg/kg, 38 mg/kg sodium pentobarbital 60 min later
Note that class boundaries on Sleep prolonging rate (%) are b0 (below 30%), b1 (30% to below 70%), b2 (70% or more)

Some solved cases for reference:
Compound	Qualitative label
OC[C@H]1O[C@@H](n2cnc3c(NC(Cc4ccccc4)c4ccccc4)ncnc32)C(O)C1O (mixture of isomers) [Example 94]	b1
COc1ccc([C@@H](C)Nc2ncnc3c2ncn3[C@@H]2O[C@H](CO)[C@@H](O)[C@H]2O)cc1 [Example 62]	b1
CC(=O)OC[C@H]1O[C@@H](n2cnc3c(NCc4ccc(C)cc4)ncnc32)C[C@H]1OC(C)=O [Example 150]	b0
CCCOC[C@H]1O[C@@H](n2cnc3c(N[C@H](CC)c4ccccc4)ncnc32)C(O)C1O (stereo partly drawn) [Example 86]	b2

Bin this entry: OC[C@H]1O[C@@H](n2cnc3c(N[C@H](c4ccccc4)[C@@H](O)c4ccccc4)ncnc32)C(O)C1O (stereo partly drawn) [Example 99]
b1

Bin this entry: CC[C@H](Nc1ncnc2c1ncn2[C@@H]1O[C@H](COC(=O)/C=C/c2ccc(C)cc2)C(O)C1O)c1ccccc1 (stereo in doubt) [Example 82]
b1

Bin this entry: OC[C@H]1O[C@@H](n2cnc3c(NC(c4ccccc4)C4CCCCC4)ncnc32)C(O)C1O (mixture of isomers) [Example 93]
b0

Bin this entry: CCC[C@@H](Nc1ncnc2c1ncn2[C@@H]1O[C@H](CO)C(O)C1O)c1ccccc1 (stereo partly drawn) [Example 89, N^6-[(R)-(phenyl)-butyl]-adenosine]
b2

Bin this entry: CC(C(O)c1ccccc1)N(C)c1ncnc2c1ncn2[C@@H]1O[C@H](CO)C(O)C1O (mixture of isomers) [Example 137]
b2

Bin this entry: OC[C@H]1O[C@@H](n2cnc3c(NC4c5ccccc5-c5ccccc54)ncnc32)[C@H](O)[C@@H]1O [Example 98, N^6-(fluorene-9-yl)-adenosine]
b1

Bin this entry: CCCCCCCCCCCC(=O)OCC1OC(n2cnc3c(NCc4ccc(OC(=O)CCCCCCCCCCC)c(OC)c4)ncnc32)C2OC(C)(C)OC12 (stereo not drawn) [Example 25]
b0

###

Tested on: male ICR-mice
Test: Potentiation of sodium pentobarbital sleeping time test
Type: in vivo
Details: oral, 5 mg/kg, 38 mg/kg sodium pentobarbital 60 min later
Threshold 50%: Sleep prolonging rate (%) strictly smaller gives met, otherwise not met.

Some solved cases for reference:
Compound	Qualitative label
CCOC(=O)[C@H](Cc1ccc(O)cc1)Nc1ncnc2c1ncn2[C@@H]1O[C@H](CO)C(O)C1O (stereo partly drawn) [Example 109, N-(6-adenosine)-(L)-tyrosine ethyl ester]	met
COc1cc(CNc2ncnc3c2ncn3[C@H]2C[C@@H](OC(C)=O)[C@@H](COC(C)=O)O2)ccc1O [Example 148]	not met
CN(c1ncnc2c1ncn2[C@@H]1O[C@H](CO)[C@@H](O)[C@H]1O)C1CCCCC1 [Example 141, N^6-methyl-N^6-cyclohexyl-adenosine]	not met
O=[N+]([O-])c1ccc(CNc2ncnc3c2ncn3[C@@H]2O[C@H](CO)[C@@H](O)[C@H]2O)cc1 [Example 8, N^6-(p-nitrobenzyl)-adenosine]	met
CSCC[C@@H](CO)Nc1ncnc2c1ncn2[C@@H]1O[C@H](CO)C(O)C1O (stereo partly drawn) [Example 132]	not met

Now consider a different compound.
Item COc1cc(CNc2ncnc3c2ncn3[C@@H]2O[C@H](CO)C(O)C2O)cc(OC)c1O (stereo partly drawn) [Example 36] : Sleep prolonging rate (%) beneath 50%, strictly?
not met

###

System: male ICR-mice
Experiment: Potentiation of sodium pentobarbital sleeping time test
Assay type: in vivo
Details: intraperitoneal, 5 mg/kg, 38 mg/kg sodium pentobarbital 30 min later
Outcome measure: Sleep prolonging rate (%)
Write down the numeric answer in % and omit the unit.

                                   compound    measured_on            outcome_measure  unit_abbreviation  observed_result
0  O=C(O)[C@@H](Cc1ccccc1)Nc1ncnc2c1ncn2[C@@H]1O[C@H](CO)C(O)C1O (stereo partly shown)  male ICR-mice  Sleep prolonging rate (%)                  %               19
1  OC[C@H]1O[C@@H](n2cnc3c(N4CCN(c5ccccc5)CC4)ncnc32)C(O)C1O (stereo partly shown)  male ICR-mice  Sleep prolonging rate (%)                  %               34
2  O=C(O)[C@H](Cc1ccccc1)Nc1ncnc2c1ncn2[C@@H]1O[C@H](CO)C(O)C1O (stereo partly shown)  male ICR-mice  Sleep prolonging rate (%)                  %               44

Give the reported Sleep prolonging rate (%) for OC[C@H]1O[C@@H](n2cnc3c(NCc4ccc5c(c4)OCO5)ncnc32)[C@H](O)[C@@H]1O (system: male ICR-mice).
175

###

System: male ICR-mice
Test: Potentiation of sodium pentobarbital sleeping time test
Format: in vivo
Settings: oral, 5 mg/kg, 38 mg/kg sodium pentobarbital 60 min later
Threshold 30%: Sleep prolonging rate (%) strictly smaller gives fulfilled, otherwise not fulfilled.

Some solved cases for reference:
In [3]: df
Out[3]:
                                   compound  qualitative_label
0  C[C@H](Nc1ncnc2c1ncn2[C@@H]1O[C@H](CO)[C@@H](O)[C@H]1O)c1ccc(F)cc1          fulfilled
1  CN(Cc1ccccc1)c1ncnc2c1ncn2[C@@H]1O[C@H](CO)[C@@H](O)[C@H]1O          fulfilled
2  Cc1ccc([C@H](C)Nc2ncnc3c2ncn3[C@@H]2O[C@H](CO)[C@@H](O)[C@H]2O)cc1          fulfilled
3  CCCCCCCC(=O)OC[C@H]1O[C@@H](n2cnc3c(NC(C)c4cc(OC)c(OC)c(OC)c4)ncnc32)[C@H](O)[C@@H]1O (mixture of isomers)      not fulfilled
4  CCCCCCCC(=O)OCC1OC(n2cnc3c(NCc4ccc5c(c4)OCO5)ncnc32)C2OC(C)(C)OC12 (stereo not shown)          fulfilled

Item CC[C@H](C)[C@@H](CO)Nc1ncnc2c1ncn2[C@@H]1O[C@H](CO)C(O)C1O (stereo partly shown) : Sleep prolonging rate (%) beneath 30%, strictly?
not fulfilled

Item CC[C@H](Nc1ncnc2c1ncn2[C@@H]1O[C@H](COC(C)=O)C(O)C1O)c1ccccc1 (stereo partly shown) : Sleep prolonging rate (%) beneath 30%, strictly?
fulfilled

Item CC[C@@H](Nc1ncnc2c1ncn2C1CCCO1)c1ccccc1 (stereo partly shown) : Sleep prolonging rate (%) beneath 30%, strictly?
fulfilled
